assay_system: T1, HLA-B*44:05 (human)
T1 construct: also called peptide-receptive MHC class I molecule
measurement_protocol: UV peptide exchange, anti-b2m ELISA
recorded_endpoint: peptide exchange yield

Looking for the measured peptide exchange yield of "QELLDIANYL" , can you help?
> 75%

Looking for the measured peptide exchange yield of "RELLDFSSW" , can you help?
> 75%

Looking for the measured peptide exchange yield of "REDLVGPEV" , can you help?
50 to 75%

Looking for the measured peptide exchange yield of "TEQSLYYRQW" , can you help?
50 to 75%

Looking for the measured peptide exchange yield of "AEYQAAILHL" , can you help?
50 to 75%

Looking for the measured peptide exchange yield of "GESVSWHLF" , can you help?
50 to 75%

Looking for the measured peptide exchange yield of "KEVDPASNTY" , can you help?
50 to 75%

Looking for the measured peptide exchange yield of "TELGLFGVW" , can you help?
> 75%

Looking for the measured peptide exchange yield of "QTLKAMVQAW" , can you help?
50 to 75%

Looking for the measured peptide exchange yield of "TEGAVEVKY" , can you help?
20 to 50%

Looking for the measured peptide exchange yield of "TEVSVLLLTF" , can you help?
50 to 75%

Looking for the measured peptide exchange yield of "SESMVESKF" , can you help?
20 to 50%

Looking for the measured peptide exchange yield of "AEEGPSVPKIY" , can you help?
50 to 75%

Looking for the measured peptide exchange yield of "KELEATKQYL" , can you help?
50 to 75%

Looking for the measured peptide exchange yield of "NEAGEVSKHF" , can you help?
50 to 75%

Looking for the measured peptide exchange yield of "AESFTSGRHYW" , can you help?
> 75%

Looking for the measured peptide exchange yield of "VEIVTIPSL" , can you help?
50 to 75%

Looking for the measured peptide exchange yield of "EVEVGEVKSW" , can you help?
10 to 20%

Looking for the measured peptide exchange yield of "KQTEATMTF" , can you help?
20 to 50%

Looking for the measured peptide exchange yield of "YQENPRAAW" , can you help?
20 to 50%

Looking for the measured peptide exchange yield of "IEIILLSGSL" , can you help?
> 75%

Looking for the measured peptide exchange yield of "IEQGRVVLW" , can you help?
> 75%

Looking for the measured peptide exchange yield of "MEIEGAGNFL" , can you help?
> 75%

Looking for the measured peptide exchange yield of "LEHPFLVNLW" , can you help?
> 75%

Looking for the measured peptide exchange yield of "AEVGDIIKV" , can you help?
20 to 50%

Looking for the measured peptide exchange yield of "NEVDGEYRY" , can you help?
50 to 75%

Looking for the measured peptide exchange yield of "GETVVLKNM" , can you help?
50 to 75%

Looking for the measured peptide exchange yield of "ALNGDIYVW" , can you help?
> 75%

Looking for the measured peptide exchange yield of "QESVHVASYYW" , can you help?
> 75%

Looking for the measured peptide exchange yield of "AEHDMKSVL" , can you help?
50 to 75%

Looking for the measured peptide exchange yield of "AEQLRGFNA" , can you help?
50 to 75%

Looking for the measured peptide exchange yield of "LDGIPTAGW" , can you help?
50 to 75%
